So I've got a bunch of compounds here, and I need their MIC Escherichia coli (GC 4560) values.
Tested on: Escherichia coli
assay.comment: in vitro antibacterial evaluation, MIC by broth dilution
Assay type: cell-based
condition.context: 18 hours at 35° C.
Expressed in µg/mL, but write only the number.

Which value of MIC Escherichia coli (GC 4560) has been reported for CC(c1ccccc1)C1NC(=O)CNC(=O)C(CO)NC(=O)C(CC2CNC(=N)N2C2OC(CO)C(O)C(O)C2O)NC(=O)C(CC2CNC(=N)N2)NC(=O)C(Cc2ccc(OC3OC(CO)C(OC4OC(CO)C(O)C(OCc5ccc(OCc6ccccc6)cc5)C4O)C(O)C3O)cc2)NC1=O (stereo not shown) [Example 246b] in the records?
32

Which value of MIC Escherichia coli (GC 4560) has been reported for CCOc1cc(COCC2OC(OC3C(CO)OC(Oc4ccc(CC5NC(=O)C(C(C)c6ccccc6)NC(=O)CNC(=O)C(CO)NC(=O)C(C(O)C6CNC(=N)N6C6OC(CO)C(O)C(O)C6O)NC(=O)C(C(O)C6CNC(=N)N6)NC5=O)cc4)C(O)C3O)C(O)C(O)C2O)ccc1OC (stereo not shown) [Example 238] in the records?
2

Which value of MIC Escherichia coli (GC 4560) has been reported for COc1ccc2cc(COCC3OC(OC4C(CO)OC(Oc5ccc(CC6NC(=O)C(C(C)c7ccccc7)NC(=O)CNC(=O)C(CO)NC(=O)C(CC7CNC(=N)N7C7OC(CO)C(O)C(O)C7O)NC(=O)C(CC7CNC(=N)N7)NC6=O)cc5)C(O)C4O)C(O)C(O)C3O)ccc2c1 (stereo not shown) [Example 245] in the records?
4

Which value of MIC Escherichia coli (GC 4560) has been reported for CCCCCNC(=O)OC1C(CO)OC(OC2C(CO)OC(Oc3ccc(CC4NC(=O)C(C(C)c5ccccc5)NC(=O)CNC(=O)C(CO)NC(=O)C(C(O)C5CNC(=N)N5C5OC(CO)C(O)C(O)C5O)NC(=O)C(C(O)C5CNC(=N)N5)NC4=O)cc3)C(O)C2O)C(O)C1O (stereo not shown) [Example 251] in the records?
4

----------
Tested on: Streptococcus sp.
assay.comment: in vitro antibacterial evaluation, MIC by broth dilution
Type: cell-based
condition.context: strain GC 4563; broth dilution, 18 hours at 35° C.
Numbered stars: 1 amine (or outer) side, 2 acyl side, 3 side chain; on linkers, the order of the positions; unused ones are H or OH. Square brackets hold non-standard residues; d marks the D form. Peptide text beside a SMILES is read from it. * marks the point of attachment. ξ: configuration not given here. X1 = N=C1NCC(C(O)C(N[*:1])C(=O)[*:2])N1C1OC(CO)C(O)C(O)C1O; ξEnduracididine(βξ-OH,4'ξ) = N=C1NCC(C(O)C(N)C(=O)O)N1; X2 = OCC1OC(OC2C(CO)OC(*)C(O)C2O)C(O)C(O)C1O; ξCha(3ξ-Me) = CC(C1CCCCC1)C(N)C(=O)O; Cha = N[CH](CC1CCCCC1)C(=O)O
So I've got a bunch of compounds here, and I need their MIC Streptococcus pyogenes (GC 4563) values.
Expressed in µg/mL, but write only the number.

Which value of MIC Streptococcus pyogenes (GC 4563) has been reported for CC(c1ccccc1)C1NC(=O)CNC(=O)C(CO)NC(=O)C(C(O)C2CNC(=N)N2C2OC(CO)C(O)C(O)C2O)NC(=O)C(C(O)C2CNC(=N)N2)NC(=O)C(Cc2ccc3oc(-c4ccc(N(C)C)cc4)nc3c2)NC1=O (stereo not shown) in the records?
16

Which value of MIC Streptococcus pyogenes (GC 4563) has been reported for CC(C1CCCCC1)C1NC(=O)CNC(=O)C(CO)NC(=O)C(C(O)C2CNC(=N)N2C2OC(CO)C(O)C(O)C2O)NC(=O)C(C(O)C2CNC(=N)N2)NC(=O)C(Cc2ccc(OC3OC(CO)C(OC4OC(CO)C(O)C(O)C4O)C(O)C3O)cc2)NC1=O (stereo not drawn) [Example 51] (cyclo(G[ξCha(3ξ-Me)]Y(X2)[ξEnduracididine(βξ-OH,4'ξ)][X1]S); configuration not given here) in the records?
8

Which value of MIC Streptococcus pyogenes (GC 4563) has been reported for CC(c1ccccc1)C1NC(=O)CNC(=O)C(CO)NC(=O)C(C(O)C2CNC(=N)N2C2OC(CO)C(O)C(O)C2O)NC(=O)C(C(O)C2CNC(=N)N2)NC(=O)C(Cc2ccc3oc(-c4ccc(C(C)(C)C)cc4)nc3c2)NC1=O (stereo not shown) in the records?
8

Which value of MIC Streptococcus pyogenes (GC 4563) has been reported for CC(=O)n1cc(C2OCC3OC(OC4C(CO)OC(Oc5ccc(CC6NC(=O)C(C(C)c7ccccc7)NC(=O)CNC(=O)C(CO)NC(=O)C(C(O)C7CNC(=N)N7C7OC(CO)C(O)C(O)C7O)NC(=O)C(C(O)C7CNC(=N)N7)NC6=O)cc5)C(O)C4O)C(O)C(O)C3O2)c2ccccc21 (stereo not shown) in the records?
1

Which value of MIC Streptococcus pyogenes (GC 4563) has been reported for N=C1NCC(C(O)C2NC(=O)C(CC3CCCCC3)NC(=O)C(CC3CCCCC3)NC(=O)CNC(=O)C(CO)NC(=O)C(C(O)C3CNC(=N)N3C3OC(CO)C(O)C(O)C3O)NC2=O)N1 (stereo not drawn) [Example 52] (cyclo(G[Cha][Cha][ξEnduracididine(βξ-OH,4'ξ)][X1]S); configuration not given here) in the records?
8

Which value of MIC Streptococcus pyogenes (GC 4563) has been reported for CC(c1ccccc1)C1NC(=O)CNC(=O)C(CO)NC(=O)C(C(O)C2CNC(=N)N2C2OC(CO)C(O)C(O)C2O)NC(=O)C(C(O)C2CNC(=N)N2)NC(=O)C(Cc2ccc3oc(SCc4ccc5ccccc5c4)nc3c2)NC1=O (stereo not shown) in the records?
1
